# Study target: Sodium channel protein type 4 subunit alpha (Homo sapiens, UniProt P35499)
# Sequence (P35499 whole entry): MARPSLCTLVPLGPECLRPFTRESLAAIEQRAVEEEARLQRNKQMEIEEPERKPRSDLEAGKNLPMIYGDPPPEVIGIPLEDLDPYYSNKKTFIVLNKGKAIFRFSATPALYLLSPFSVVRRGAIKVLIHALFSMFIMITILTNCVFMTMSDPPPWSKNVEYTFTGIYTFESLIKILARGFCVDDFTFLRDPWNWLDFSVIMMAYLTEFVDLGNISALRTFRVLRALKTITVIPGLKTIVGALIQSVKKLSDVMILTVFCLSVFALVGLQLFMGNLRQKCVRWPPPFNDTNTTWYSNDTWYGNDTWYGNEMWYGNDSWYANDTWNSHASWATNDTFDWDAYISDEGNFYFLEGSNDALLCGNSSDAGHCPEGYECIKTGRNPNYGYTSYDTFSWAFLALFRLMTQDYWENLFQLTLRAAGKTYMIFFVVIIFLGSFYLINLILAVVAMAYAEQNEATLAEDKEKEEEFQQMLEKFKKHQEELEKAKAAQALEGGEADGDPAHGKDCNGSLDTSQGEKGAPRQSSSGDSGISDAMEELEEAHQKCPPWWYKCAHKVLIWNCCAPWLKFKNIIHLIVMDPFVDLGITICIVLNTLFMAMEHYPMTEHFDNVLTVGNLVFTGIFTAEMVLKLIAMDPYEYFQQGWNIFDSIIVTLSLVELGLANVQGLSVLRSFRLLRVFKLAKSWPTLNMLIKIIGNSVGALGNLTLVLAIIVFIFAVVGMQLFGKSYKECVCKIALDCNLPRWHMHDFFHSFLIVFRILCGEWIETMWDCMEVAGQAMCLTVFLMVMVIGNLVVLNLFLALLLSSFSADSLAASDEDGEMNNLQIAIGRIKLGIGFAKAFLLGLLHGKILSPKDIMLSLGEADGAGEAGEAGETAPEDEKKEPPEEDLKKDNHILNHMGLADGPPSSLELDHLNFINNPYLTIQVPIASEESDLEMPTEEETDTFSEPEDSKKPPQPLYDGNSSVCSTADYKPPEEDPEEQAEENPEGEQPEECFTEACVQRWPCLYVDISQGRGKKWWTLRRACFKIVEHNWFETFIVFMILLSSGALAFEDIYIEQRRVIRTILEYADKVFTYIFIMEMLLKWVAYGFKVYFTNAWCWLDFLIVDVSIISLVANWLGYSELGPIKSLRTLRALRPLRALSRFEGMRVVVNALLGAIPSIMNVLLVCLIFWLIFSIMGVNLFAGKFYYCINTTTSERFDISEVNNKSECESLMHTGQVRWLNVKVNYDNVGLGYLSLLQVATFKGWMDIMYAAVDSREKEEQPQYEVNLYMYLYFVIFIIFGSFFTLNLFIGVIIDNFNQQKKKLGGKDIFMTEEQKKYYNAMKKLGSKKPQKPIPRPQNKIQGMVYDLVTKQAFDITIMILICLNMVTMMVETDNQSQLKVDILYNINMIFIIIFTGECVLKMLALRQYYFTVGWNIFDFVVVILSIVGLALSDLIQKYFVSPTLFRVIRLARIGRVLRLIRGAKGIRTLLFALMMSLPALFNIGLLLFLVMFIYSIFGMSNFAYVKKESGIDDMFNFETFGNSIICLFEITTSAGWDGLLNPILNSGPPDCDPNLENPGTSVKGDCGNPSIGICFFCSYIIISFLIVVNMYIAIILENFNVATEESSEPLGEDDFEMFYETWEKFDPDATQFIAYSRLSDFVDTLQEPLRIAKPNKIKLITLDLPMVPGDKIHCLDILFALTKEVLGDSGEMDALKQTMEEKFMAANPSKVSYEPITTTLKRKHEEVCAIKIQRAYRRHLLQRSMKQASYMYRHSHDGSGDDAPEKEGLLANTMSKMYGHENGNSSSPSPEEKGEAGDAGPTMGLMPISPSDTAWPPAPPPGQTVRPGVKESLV
# Assay overview: Inhibition of sodium channels through tonic blockade
# Assay type: functional
Value kind: IC50 (µM)
Value expressed in µM; do not type the unit.

Hi! What's the reported IC50 for CNC1(c2ccccc2Cl)CCCCC1=O (stereo unspecified) on Sodium channel protein type 4 subunit alpha (Homo sapiens, UniProt P35499)?
800

* * *

# Study target: Sodium channel protein type 4 subunit alpha (Homo sapiens)
# Assay overview: Inhibition of sodium channels through phasic blockade
# Assay type: functional
Value kind: pIC50
Scale: negative log10 of molar concentration, which is what pIC50 denotes.

Give the measured pIC50 of CNC1(c2ccccc2Cl)CCCCC1=O (stereo unspecified) .
2.64

* * *

# Test system: Rattus norvegicus
# Assay overview: Compound was tested for minimum alveolar concentration in rat at dose 60 mg/kg administered intraperitoneally
# Type: functional
# Test parameters: route intraperitoneal
Value kind: MAC reduction (%)
Value expressed in %; do not type the unit.

Give the measured MAC reduction of NC(=O)C(OCc1ccccc1)(c1ccccc1)C(F)(F)F (stereo not drawn) .
-4.4

Here is the next molecule: CC(O)(C(N)=O)c1ccccc1 (stereo not drawn) [ATROLACTAMIDE]
0

Here is the next molecule: CN1C(=O)C(O)(C(F)(F)F)c2ccccc21 (stereo not drawn)
-4.4

* * *

# Test system: Rattus norvegicus
# Assay overview: Compound was tested for minimum alveolar concentration in rat at dose 60 mg/kg administered intraperitoneally
# Type: functional
# Test parameters: route intraperitoneal
Hi there, I'd appreciate the recorded MAC reduction for every entry that follows.
Value expressed in %; do not type the unit.

Give the measured MAC reduction of NC(=O)C(O)(Cc1ccccc1)C(F)(F)F (configuration not stated) .
0

Here is the next compound: O=C(O)C(O)(c1ccccc1)C(F)(F)F (configuration not stated)
-9.1

Here is the next compound: NC(=O)C(O)(CC(F)(F)F)c1ccccc1 (configuration not stated)
-11

Here is the next compound: NC(=O)C(O)(c1ccccc1)C(F)(F)F (configuration not stated)
-34

Here is the next compound: NC(=O)C(O)(c1ccccc1)C(F)(F)Cl (configuration not stated)
-43

Here is the next compound: O=C1Nc2ccccc2C1(O)C(F)(F)F (configuration not stated)
-4.3

Here is the next compound: NCC(O)(c1ccccc1)C(F)(F)F (configuration not stated)
-6.5
